Cited source: ChEMBL document CHEMBL1157539

Answer each item with its documented Inhibition.
system: Plasmodium falciparum; assay: GSK_TCMDC: Inhibition of Plasmodium falciparum 3D7 in whole red blood cells, using parasite LDH activity as an index of growth. Test compounds present at 2uM; type: functional
Numbers only; they are read as %.

Query: # input molecule: COc1cc(Cc2cnc(N)nc2N)cc(OCCCCCC(N)=O)c1OC ; wanted: its Inhibition
Response: 90

Query: Requested read-out: Inhibition. Entry: O=C(NCc1cccc(Br)c1)c1ccc(CNC2CCN(Cc3ccccc3)CC2)cc1.O=C(O)C(F)(F)F
Response: 100

Query: What does the data say about its Inhibition? Entry: CC(C)CCN1CCCN(Cc2ccc(C(=O)Nc3ccc(C(C)(C)C)cc3)cc2)CC1.O=C(O)C(F)(F)F
Response: 92

Query: I have this molecule here, CS(=O)(=O)CCN(CCS(C)(=O)=O)Cc1ccc(-c2ccc3ncnc(Nc4ccc(OCc5cccc(F)c5)c(Cl)c4)c3c2)o1.Cc1ccc(S(=O)(=O)O)cc1 , and I need its recorded Inhibition.
Response: 90

Query: # input molecule: O=C(Cc1ccccc1)NC(CCN1CCC(O)(c2cccc(C(F)(F)F)c2)CC1)c1ccc(Cl)c(Cl)c1 (stereo not drawn) ; wanted: its Inhibition
Response: 96

Query: Consider the molecule shown here: CC(=O)Oc1c(C2CCN(CCCCNC(=O)c3ccc(-c4ccc(C#N)cc4)cc3)CC2)ccc2c1CCCC2 What is its recorded Inhibition?
Response: 88

Query: Please give the measured Inhibition for this molecule: CCc1cn2c3c(cc(C(=O)N[C@@H](Cc4ccccc4)[C@H](O)CNCc4ccccc4C)cc13)N(C)S(=O)(=O)CC2.O=CO
Response: 98

Query: Entry COc1cccc(C(=O)N2CCOC(CCN3CCC(c4ccccc4)CC3)(c3ccc(Cl)c(Cl)c3)C2)c1 (stereo not drawn) : reported Inhibition = ?
Response: 87
